Assignment: determine reported composite z-score for the given compounds.
# Tested on: PRMT1 (protein arginine N-methyltransferase 1)
# Assay procedure: PRMT1 binders on small-molecule microarrays, primary screen, biochemical, small-molecule microarray, 635 nm fluorescence (AID 1088)
# Recorded conditions: small-molecule microarray binding, higher = more signal
# print the numeric value only

# lookup: COC(=O)[C@H](C)NC(=O)CCC1CC(OC(=O)NCc2cccc3ccccc23)CC2(CCCC(COC(=O)NCCc3ccccc3OC)O2)O1 (stereo not given in full) on PRMT1 (protein arginine N-methyltransferase 1), composite z-score = 1.37

# lookup: CCOC(=O)CCN1C(=O)[C@H]2[C@H]3[C@H](O)[C@H](O)CC(=NNC(=O)OCC)[C@H]3CC[C@H]2C1=O on PRMT1 (protein arginine N-methyltransferase 1), composite z-score = 0.0158

# lookup: COC(=O)[C@@H]1CC[C@H](C)[C@@H](c2ccc(Br)cc2)N1C[C@H](O)CN=[N+]=[N-] on PRMT1 (protein arginine N-methyltransferase 1), composite z-score = -0.164

# lookup: O=C1C2=CC[C@H]3C(=O)N(C[C@@H]4CCCO4)C(=O)[C@H]3[C@H]2[C@H](O)[C@@H]2O[C@H]12 on PRMT1 (protein arginine N-methyltransferase 1), composite z-score = 0.514

# lookup: CCN1C(=O)[C@H]2[C@H]3[C@H](O)[C@H](O)CC(=NO[C@@H]4O[C@H](COC(C)=O)[C@@H](OC(C)=O)[C@H](OC(C)=O)[C@H]4OC(C)=O)[C@@H]3CC[C@H]2C1=O on PRMT1 (protein arginine N-methyltransferase 1), composite z-score = 1.29

# lookup: CCN1C(=O)[C@H]2[C@H]3[C@H](O)[C@H](O)CC(=NOC[C@@H](O)COCc4ccco4)[C@H]3CC[C@H]2C1=O on PRMT1 (protein arginine N-methyltransferase 1), composite z-score = 1.21

# lookup: C=CC[C@@H]1C=C[C@H](ON=CC[C@@H]2C=C[C@H](OC(C)=O)[C@@H](COC(C)=O)O2)[C@@H](CO)O1 on PRMT1 (protein arginine N-methyltransferase 1), composite z-score = 1.26

# lookup: Cc1ccc(S(=O)(=O)N[C@@H]2COC(=O)CC=C[C@@H](C)[C@H](NS(=O)(=O)c3ccc(C)cc3)COC(=O)[C@H](C)NC(=O)CC=C[C@H]2C)cc1 on PRMT1 (protein arginine N-methyltransferase 1), composite z-score = -0.287

# lookup: CC(C)CON=C1C[C@@H](O)[C@@H](O)[C@@H]2[C@@H]3C(=O)N(Cc4ccccc4)C(=O)[C@@H]3CC[C@H]12 on PRMT1 (protein arginine N-methyltransferase 1), composite z-score = -0.238

# lookup: C=CC[C@@H]1C=C[C@H](ON=C(C)CCN2CCCc3nc(C)c(C)cc32)[C@@H](CO)O1 on PRMT1 (protein arginine N-methyltransferase 1), composite z-score = 1.4

# lookup: CCN1C(=O)[C@H]2[C@H]3[C@H](O)[C@H](O)CC(=NOCC(C)C)[C@H]3CC[C@H]2C1=O on PRMT1 (protein arginine N-methyltransferase 1), composite z-score = -0.332

# lookup: C#CCCCON=C1[C@H]2CCn3c(=O)n(Cc4cc5c(cc4Cl)OCO5)c(=O)n3[C@H]2[C@H](O)[C@@H]2O[C@H]12 on PRMT1 (protein arginine N-methyltransferase 1), composite z-score = 0.0698

# lookup: C#CCCCON=C1C[C@@H](O)[C@@H](O)[C@@H]2[C@@H]3C(=O)N(C4CCCCC4)C(=O)[C@@H]3CC[C@@H]12 on PRMT1 (protein arginine N-methyltransferase 1), composite z-score = 0.335

# lookup: COc1ccc(OC[C@@H](CO)OC)cc1 on PRMT1 (protein arginine N-methyltransferase 1), composite z-score = -0.601

# lookup: Cc1ccc(C(C)C)n1C(=O)OC(C)(C)C on PRMT1 (protein arginine N-methyltransferase 1), composite z-score = 0.0565
